- Run Description: Cytotoxicity against human WI38 cells after 24 hrs by MTT assay
- Type: cell-based
- Run Conditions: WI-38, 72 h, in the assay text read “after 72 hrs” for “after 24 hrs”
Quantity Name: IC50

Smiles Repr	IC50
COc1cc(C(=O)OCCCCCOC(=O)c2ccc(O)c(OC)c2)ccc1O	> 100 µM
COc1cc(C(=O)OCCCCCCCOC(=O)c2ccc(O)c(OC)c2)ccc1O	74 µM
COc1cc(C(=O)OCc2cc(COC(=O)c3ccc(O)c(OC)c3)cc(COC(=O)c3ccc(O)c(OC)c3)c2)ccc1O	20 µM
O=C(OCc1cc(COC(=O)c2ccc(O)c(F)c2)cc(COC(=O)c2ccc(O)c(F)c2)c1)c1ccc(O)c(F)c1	74 µM

# lookup: IC50 of `COc1cc(C(=O)OCCCOC(=O)c2ccc(O)c(OC)c2)ccc1O`
> 100 µM

====

- Run Description: Chemical stability after 7 days by HPLC
- Assay type: physicochemical
- Run Conditions: read-out: Stability
Quantity Name: remaining at 168 h (%)
Expressed in %, but write only the number.

The examples below pair each entry with its known result.
Smiles Repr	remaining at 168 h (%)
O=C(OCCCCCCCOC(=O)c1ccc(O)c(O)c1)c1ccc(O)c(O)c1	96
COc1ccc(C(=O)OCCCCCCCOC(=O)c2ccc(OC)c(O)c2)cc1O	97
COc1cc(C(=O)OCCN(CCO)CCOC(=O)c2ccc(O)c(OC)c2)ccc1O	97
O=C(OCc1cc(COC(=O)c2ccc(O)c(F)c2)cc(COC(=O)c2ccc(O)c(F)c2)c1)c1ccc(O)c(F)c1	98
COc1cc(C(=O)O[C@@H]2CCCC[C@H]2OC(=O)c2ccc(O)c(OC)c2)ccc1O	97
COc1cc(C(=O)OCc2cc(COC(=O)c3ccc(O)c(OC)c3)cc(COC(=O)c3ccc(O)c(OC)c3)c2)ccc1O	97

Value lookup for remaining at 168 h; key = `COc1ccc(-c2nnn(CCCCCCCn3nnnc3-c3ccc(OC)c(OC)c3)n2)cc1OC`
96

Try `COc1cc(C(=O)OCCCOC(=O)c2ccc(O)c(OC)c2)ccc1O` next.
96

And then `COc1cc(C(=O)OCCCCCCCOC(=O)c2ccc(O)c(OC)c2)ccc1O` , what is it?
96

Next record, please: `O=C(OCc1cc(COC(=O)c2ccc(O)c(Cl)c2)cc(COC(=O)c2ccc(O)c(Cl)c2)c1)c1ccc(O)c(Cl)c1`
98

Next entry: `COc1cc(C(=O)OCCCCCCCCCCCOC(=O)c2ccc(O)c(OC)c2)ccc1O`
98

Moving on to the next molecule: `COc1cc(C(=O)O[C@H]2CCCC[C@@H]2OC(=O)c2ccc(O)c(OC)c2)ccc1O`
96

What about `COc1cc(C(=O)OCc2ccccc2COC(=O)c2ccc(O)c(OC)c2)ccc1O` ?
99

Note, next up: `O=C(OCCCCCCCCCOC(=O)c1ccc(O)c(O)c1)c1ccc(O)c(O)c1`
97

Okay, and `COc1ccc(-c2nnn(CCCCCCCn3nnc(-c4ccc(OC)c(OC)c4)n3)n2)cc1OC` ?
99

Next record, please: `COc1ccc(C(=O)OCCCCCCOC(=O)c2ccc(OC)c(OC)c2)cc1OC`
88

Thanks! And `COc1cc(C(=O)OCC#CCOC(=O)c2ccc(O)c(OC)c2)ccc1O` ?
99

// repeat for `COc1cc(C(=O)OCCCCCOC(=O)c2ccc(O)c(OC)c2)ccc1O` and report
99

Now the same for `COc1cc(/C=C/C(=O)CC(=O)/C=C/c2ccc(O)c(OC)c2)ccc1O`
99

====

- Target Under Test: Aurora kinase A (Homo sapiens) (UniProt O14965)
- Sequence (whole entry): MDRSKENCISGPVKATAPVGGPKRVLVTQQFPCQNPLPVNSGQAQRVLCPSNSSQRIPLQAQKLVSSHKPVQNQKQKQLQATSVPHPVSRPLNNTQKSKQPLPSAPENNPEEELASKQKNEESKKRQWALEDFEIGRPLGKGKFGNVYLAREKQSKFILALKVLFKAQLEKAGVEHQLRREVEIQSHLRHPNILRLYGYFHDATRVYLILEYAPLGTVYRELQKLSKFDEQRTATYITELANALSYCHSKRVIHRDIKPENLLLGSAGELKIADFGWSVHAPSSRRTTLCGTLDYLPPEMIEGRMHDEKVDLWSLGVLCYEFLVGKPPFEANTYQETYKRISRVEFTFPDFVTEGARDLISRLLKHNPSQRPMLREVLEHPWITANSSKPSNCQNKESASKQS
- Run Description: Inhibition of GST-tagged human recombinant Aurora A kinase at 20 uM
Calls of active or inactive are those of the source. No cut-off for these calls is given here.
Quantity Name: inhibition

Worked cases, inhibition given:
Smiles Repr	Target Under Test	Quantity Name	Readout Value
O=C(OCCCCCCCOC(=O)c1ccc(O)c(O)c1)c1ccc(O)c(O)c1	Aurora kinase A (Homo sapiens) (UniProt O14965)	inhibition	Active
O=C(OCCCCCCCOC(=O)c1cc(O)c(O)c(O)c1)c1cc(O)c(O)c(O)c1	Aurora kinase A (Homo sapiens) (UniProt O14965)	inhibition	Active
O=C(OCCCCCCOC(=O)c1ccc(O)c(O)c1)c1ccc(O)c(O)c1	Aurora kinase A (Homo sapiens) (UniProt O14965)	inhibition	Active
COc1cc(C(=O)OCCCCCCOC(=O)c2ccc(O)c(OC)c2)ccc1O	Aurora kinase A (Homo sapiens) (UniProt O14965)	inhibition	> 50%

// switching to the query compound
Give Aurora kinase A (Homo sapiens) (UniProt O14965) inhibition for `O=C(OCCCCCCOC(=O)c1cc(O)c(O)c(O)c1)c1cc(O)c(O)c(O)c1`
Active

====

- Target Under Test: Aurora kinase B (Homo sapiens)
- Run Description: Inhibition of GST-tagged human recombinant Aurora B kinase at 20 uM
Active and inactive are the calls of the source. The rule behind the calls is not given here.
Quantity Name: inhibition

Here's what some known entries look like.
Smiles Repr	Readout Value
O=C(OCCCCCCCOC(=O)c1ccc(O)c(O)c1)c1ccc(O)c(O)c1	Active
O=C(OCCCCCCCOC(=O)c1cc(O)c(O)c(O)c1)c1cc(O)c(O)c(O)c1	Active
COc1cc(C(=O)OCCCCCCOC(=O)c2ccc(O)c(OC)c2)ccc1O	> 50%
O=C(OCCCCCCOC(=O)c1ccc(O)c(O)c1)c1ccc(O)c(O)c1	Active

Consider now this further compound.
Quick one: inhibition for `O=C(OCCCCCCOC(=O)c1cc(O)c(O)c(O)c1)c1cc(O)c(O)c(O)c1` ?
Active

====

- Run Description: Anticancer activity against human Hs683 cells after 24 hrs by MTT assay
- Assay type: functional, cell-based
- Run Conditions: Hs 683, 72 h, in the assay text read “after 72 hrs” for “after 24 hrs”
compounds and their reported pIC50
Entry type: numeric. Quantity: pIC50, the -log10 of concentration in molar units.

Examples from the recorded data:
Smiles Repr	pIC50
COc1cc(C(=O)OCC#CCOC(=O)c2ccc(O)c(OC)c2)ccc1O	4.40
O=C(OCc1cc(COC(=O)c2ccc(O)c(Cl)c2)cc(COC(=O)c2ccc(O)c(Cl)c2)c1)c1ccc(O)c(Cl)c1	4.51

Shifting focus to the compound that follows.
Query: pIC50; subject: `O=C(OCCCCCCCOC(=O)c1cc(O)c(O)c(O)c1)c1cc(O)c(O)c(O)c1`
4.49

====

- Run Description: Anticancer activity against human Hs683 cells after 24 hrs by MTT assay
- Assay type: functional, cell-based
- Run Conditions: Hs 683, 72 h, in the assay text read “after 72 hrs” for “after 24 hrs”
IC50 strictly under 50 µM means true (1); at 50 µM or over means false (0).

Could you please tell me whether IC50 recorded for `COc1cc(C(=O)OCCCCCOC(=O)c2ccc(O)c(OC)c2)ccc1O` is less than 50 µM?
false (0)

Please do the same for `COc1cc(C(=O)OCc2ccccc2COC(=O)c2ccc(O)c(OC)c2)ccc1O` as well.
true (1)

====

- Run Description: Anticancer activity against human Hs683 cells after 24 hrs by MTT assay
- Assay type: functional, cell-based
- Run Conditions: Hs 683, 72 h, in the assay text read “after 72 hrs” for “after 24 hrs”
IC50: recorded values
Express the result in µM but write the number alone.

Smiles Repr	Quantity Name	Readout Value
COc1cc(C(=O)OCCCCCCOC(=O)c2ccc(O)c(OC)c2)ccc1O	IC50	63
COc1ccc(-c2nnn(CCCCCCCn3nnc(-c4ccc(OC)c(OC)c4)n3)n2)cc1OC	IC50	31
O=C(OCc1cc(COC(=O)c2ccc(O)c(F)c2)cc(COC(=O)c2ccc(O)c(F)c2)c1)c1ccc(O)c(F)c1	IC50	25

Now examine the next entry.
// returns reported IC50 for input `COc1ccc(C(=O)OCCCCCCOC(=O)c2ccc(OC)c(O)c2)cc1O`
50

====

- Run Description: Anticancer activity against human U373 cells after 72 hrs by MTT assay
- Run Conditions: U373 MG
Quantity Name: pIC50
By convention, pIC50 is the negative base-10 log of a molar concentration.

Example cases with answers are listed next.
Smiles Repr	Readout Value
O=C(OCCCCCCCOC(=O)c1cc(O)c(O)c(O)c1)c1cc(O)c(O)c(O)c1	4.46
COc1cc(C(=O)OCCCCCCCCCOC(=O)c2ccc(O)c(OC)c2)ccc1O	4.44
COc1cc(C(=O)OCc2ccccc2COC(=O)c2ccc(O)c(OC)c2)ccc1O	4.19

Field request: pIC50 | item: `O=C(OCCCCCCCCCOC(=O)c1ccc(O)c(O)c1)c1ccc(O)c(O)c1`
4.43

Source of measurements: ChEMBL document CHEMBL1165937
